experiment: Liver microsomal metabolic stability, human; assay type: in vitro ADME; settings: liver microsomes, 0.5 mg/mL microsomes, 1 μM compound, NADPH, read-out: Liver microsomal stability T1/2
// values below are reported half-life at 1 μM

COMPOUND: Cc1cccc([C@@H](CO)NC(=O)[C@@H](C)N2Cc3ccc(-c4nc(NC5CCOCC5)ncc4Cl)cc3C2=O)c1 [Comparative compound 1, reference compound]
UNIT_ABBREV: min
half-life at 1 μM: 3

COMPOUND: Cc1cccc([C@@H](CO)NC(=O)[C@@H](C)N2Cc3c(F)cc(-c4nc(NC5CCOCC5)ncc4Cl)cc3C2=O)c1 [Comparative compound 4, reference compound]
UNIT_ABBREV: min
half-life at 1 μM: 3

COMPOUND: C[C@H](C(=O)N[C@H](CO)c1cccc(Cl)c1)N1Cc2ccc(-c3nc(NC4CCOCC4)ncc3Cl)nc2C1=O
UNIT_ABBREV: min
half-life at 1 μM: 62

====

assay: In-vivo pharmacokinetic parameters in SD rats; conditions: male, rat, plasma, 1 mg/kg, IV, 1 mpk

ITEM_SMILES: C[C@H](C(=O)N[C@H](CO)c1cccc(Cl)c1)N1Cc2ccc(-c3nc(NC4CCOCC4)ncc3F)c(F)c2C1=O
clearance: 54 mL/min/kg
--
ITEM_SMILES: COc1cc(F)cc([C@@H](CO)NC(=O)[C@@H](C)N2Cc3ccc(-c4nc(NC5CCOCC5)ncc4F)c(F)c3C2=O)c1
clearance: 94 mL/min/kg

====

target: ERK1/2 kinase; construct: fused on or other part: Carna's ERK products carry a GST tag by vendor knowledge; experiment: ERK1/2 kinase (Carna) inhibitory activity, Caliper mobility shift; type: biochemical; conditions: class symbols; read-out: ERK½ IC50
pIC50: −log10 of the molar value.
READOUT: pIC50

COMPOUND: Cc1cccc([C@@H](CO)NC(=O)[C@@H](C)N2Cc3ccc(-c4cc(NC5CCOCC5)ncc4C)nc3C2=O)c1
ASSAYED_SYSTEM: ERK1/2 kinase
READOUT: pIC50
RESULT_VALUE: 6.70 to 8.00

COMPOUND: C[C@H](C(=O)N[C@H](CO)c1cccc(Cl)c1)N1Cc2ccc(-c3nc(NC4CCC(O)C(F)C4)ncc3F)c(F)c2C1=O (some centres unmarked)
ASSAYED_SYSTEM: ERK1/2 kinase
READOUT: pIC50
RESULT_VALUE: > 8.00

COMPOUND: Cc1cccc([C@@H](CO)NC(=O)[C@@H](C)N2Cc3ccc(-c4cc(Nc5ccnn5C)ncc4F)nc3C2=O)c1
ASSAYED_SYSTEM: ERK1/2 kinase
READOUT: pIC50
RESULT_VALUE: 6.70 to 8.00

COMPOUND: Cc1cccc([C@@H](CO)NC(=O)[C@@H](C)N2Cc3ccc(-c4ccnc(NC5CC(F)(F)C5)c4)c(F)c3C2=O)c1
ASSAYED_SYSTEM: ERK1/2 kinase
READOUT: pIC50
RESULT_VALUE: > 8.00

COMPOUND: C[C@H](C(=O)N[C@H](CO)c1cccc(Cl)c1)N1Cc2ccc(-c3nc(NC4CCC(F)(F)CC4)ncc3F)c(F)c2C1=O
ASSAYED_SYSTEM: ERK1/2 kinase
READOUT: pIC50
RESULT_VALUE: > 8.00

COMPOUND: Cc1cccc([C@@H](CO)NC(=O)[C@@H](C)N2Cc3ccc(-c4ccnc(Nc5ccnn5C)n4)nc3C2=O)c1
ASSAYED_SYSTEM: ERK1/2 kinase
READOUT: pIC50
RESULT_VALUE: > 8.00

COMPOUND: C[C@H](C(=O)N[C@H](CO)c1cccc(Cl)c1)N1Cc2ccc(-c3nc(NC4CC[C@H](O)[C@@H](F)C4)ncc3F)c(F)c2C1=O (some centres unmarked)
ASSAYED_SYSTEM: ERK1/2 kinase
READOUT: pIC50
RESULT_VALUE: > 8.00

COMPOUND: CC(C)Nc1cc(-c2c[nH]c(C(=O)N[C@H](CO)c3cccc(Cl)c3)c2)c(Cl)cn1 [BVD523, reference compound]
ASSAYED_SYSTEM: ERK1/2 kinase
READOUT: pIC50
RESULT_VALUE: > 8.00

COMPOUND: Cn1nccc1Nc1nccc(-c2cc3c(s2)C(C)(C)N(CCN2CCOCC2)C3=O)n1 [LY3214996, reference compound]
ASSAYED_SYSTEM: ERK1/2 kinase
READOUT: pIC50
RESULT_VALUE: > 8.00

COMPOUND: Cc1cccc([C@@H](CO)NC(=O)[C@@H](C)N2Cc3ccc(-c4cc(NC5CCOCC5)ncn4)nc3C2=O)c1
ASSAYED_SYSTEM: ERK1/2 kinase
READOUT: pIC50
RESULT_VALUE: 6.70 to 8.00

COMPOUND: Cn1nccc1Nc1nccc(-c2ccn([C@H](CO)c3ccc(Cl)c(F)c3)c(=O)c2)n1 [GDC0994, reference compound]
ASSAYED_SYSTEM: ERK1/2 kinase
READOUT: pIC50
RESULT_VALUE: > 8.00

COMPOUND: Cc1cccc([C@@H](CO)NC(=O)[C@@H](C)N2Cc3ccc(-c4cc(NC5CCOCC5)ncn4)c(F)c3C2=O)c1
ASSAYED_SYSTEM: ERK1/2 kinase
READOUT: pIC50
RESULT_VALUE: > 8.00

COMPOUND: COc1cc(F)cc([C@@H](CO)NC(=O)[C@@H](C)N2Cc3ccc(-c4nc(NC5CCC(F)(F)CC5)ncc4F)c(F)c3C2=O)c1
ASSAYED_SYSTEM: ERK1/2 kinase
READOUT: pIC50
RESULT_VALUE: > 8.00

COMPOUND: Cc1cccc([C@@H](CO)NC(=O)[C@@H](C)N2Cc3ccc(-c4cc(NC5CCOCC5)ncc4Cl)nc3C2=O)c1
ASSAYED_SYSTEM: ERK1/2 kinase
READOUT: pIC50
RESULT_VALUE: 6.70 to 8.00

COMPOUND: COc1cc(F)cc([C@@H](CO)NC(=O)[C@@H](C)N2Cc3ccc(-c4nc(NC5CC(F)(F)C5)ncc4F)c(F)c3C2=O)c1
ASSAYED_SYSTEM: ERK1/2 kinase
READOUT: pIC50
RESULT_VALUE: > 8.00

COMPOUND: C[C@H](C(=O)NCc1cccc(N(C)C)n1)N1Cc2ccc(-c3nc(NC4CCOCC4)ncc3F)c(F)c2C1=O
ASSAYED_SYSTEM: ERK1/2 kinase
READOUT: pIC50
RESULT_VALUE: > 8.00

COMPOUND: Cc1cccc([C@@H](CO)NC(=O)[C@@H](C)N2Cc3ccc(-c4nc(Nc5ccnn5C)ncc4Cl)nc3C2=O)c1
ASSAYED_SYSTEM: ERK1/2 kinase
READOUT: pIC50
RESULT_VALUE: > 8.00

====

test: Liver microsomal metabolic stability, dog; format: in vitro ADME; conditions: liver microsomes, 0.5 mg/mL microsomes, 1 μM compound, NADPH, read-out: Liver microsomal stability T1/2
// values below are reported half-life at 1 μM
READOUT: half-life at 1 μM (h)

COMPOUND: Cc1cccc([C@@H](CO)NC(=O)[C@@H](C)N2Cc3ncc(-c4nc(NC5CCOCC5)ncc4Cl)cc3C2=O)c1 [Comparative compound 3, reference compound]
UNIT_ABBREV: h
RESULT_VALUE: 3.35

COMPOUND: Cc1cccc([C@@H](CO)NC(=O)[C@@H](C)N2Cc3c(F)cc(-c4nc(NC5CCOCC5)ncc4Cl)cc3C2=O)c1 [Comparative compound 4, reference compound]
UNIT_ABBREV: h
RESULT_VALUE: 1

COMPOUND: COc1cc(F)cc([C@@H](CO)NC(=O)[C@@H](C)N2Cc3ccc(-c4nc(NC5CCOCC5)ncc4F)c(F)c3C2=O)c1 [Embodiment 40]
UNIT_ABBREV: h
RESULT_VALUE: 1.22

COMPOUND: C[C@H](C(=O)N[C@H](CO)c1cccc(Cl)c1)N1Cc2ccc(-c3nc(NC4CCOCC4)ncc3Cl)nc2C1=O [Embodiment 21]
UNIT_ABBREV: h
RESULT_VALUE: 1.3

COMPOUND: COc1cc(F)cc([C@@H](CO)NC(=O)[C@@H](C)N2Cc3ccc(-c4nc(NC5CCOCC5)ncc4Cl)cc3C2=O)c1 [Comparative compound 5, reference compound]
UNIT_ABBREV: h
RESULT_VALUE: 0.683

COMPOUND: Cc1cccc([C@@H](CO)NC(=O)[C@@H](C)N2Cc3ccc(-c4nc(NC5CCOCC5)ncc4Cl)cc3C2=O)c1 [Comparative compound 1, reference compound]
UNIT_ABBREV: h
RESULT_VALUE: 0.667

COMPOUND: COc1cc(F)cc([C@@H](CO)NC(=O)[C@@H](C)N2Cc3ccc(-c4nc(NC5CCOCC5)ncc4Cl)nc3C2=O)c1 [Embodiment 18]
UNIT_ABBREV: h
RESULT_VALUE: 0.533

Reference source for all entries: patent US20230312564A1
